Source of measurements: ChEMBL document CHEMBL4014339

molecular target: Nucleotide-binding oligomerization domain-containing protein 1 (Homo sapiens) (UniProt Q9Y239); assay: Antagonist activity at human NOD1 expressed in HEK-blue cells assessed as inhibition of C12-iE-DAP-stimulated cell activation at 5 uM preincubated for 3 hrs followed by C12-iE-DAP addition measured after 20 hrs by SEAP reporter gene assay; format: cell-based
measure: inhibition

## Input Which inhibition is reported for this molecule? COC(=O)CC[C@H]1NC(=O)c2cc(Oc3cccc(N(C)C)c3)c(NC(=O)COCc3ccc(C#N)cc3)cc2NC1=O
## Output 65.4%

## Input Which inhibition reading was recorded for the molecule COC(=O)CC[C@H]1NC(=O)c2cc(Oc3cccc(N(C)C)c3)c(NC(=O)COCc3cccc(Cl)c3)cc2NC1=O ?
## Output 76.7%

## Input Entry CCCNC(=O)CC[C@H]1NC(=O)c2cc(Oc3cccc(N(C)C)c3)c(NC(=O)COCc3ccc(Cl)cc3)cc2NC1=O : reported inhibition = ?
## Output 52.9%

## Input Any idea what inhibition was measured for COC(=O)CC[C@H]1NC(=O)c2cc(Oc3cc(N(C)C)c(Cl)c(Cl)c3Cl)c(NC(=O)COCc3ccccc3)cc2NC1=O ?
## Output 16.2%

* * *

biological target: Nucleotide-binding oligomerization domain-containing protein 2 (Homo sapiens, UniProt Q9HC29); test: Antagonist activity at human NOD2 expressed in HEK-Blue cells assessed as inhibition of MDP-stimulated cell activation at 10 uM preincubated for 3 hrs followed by MDP addition measured after 20 hrs by SEAP reporter gene assay; assay type: cell-based
Sequence (Q9HC29 whole entry, the tested form may be a part): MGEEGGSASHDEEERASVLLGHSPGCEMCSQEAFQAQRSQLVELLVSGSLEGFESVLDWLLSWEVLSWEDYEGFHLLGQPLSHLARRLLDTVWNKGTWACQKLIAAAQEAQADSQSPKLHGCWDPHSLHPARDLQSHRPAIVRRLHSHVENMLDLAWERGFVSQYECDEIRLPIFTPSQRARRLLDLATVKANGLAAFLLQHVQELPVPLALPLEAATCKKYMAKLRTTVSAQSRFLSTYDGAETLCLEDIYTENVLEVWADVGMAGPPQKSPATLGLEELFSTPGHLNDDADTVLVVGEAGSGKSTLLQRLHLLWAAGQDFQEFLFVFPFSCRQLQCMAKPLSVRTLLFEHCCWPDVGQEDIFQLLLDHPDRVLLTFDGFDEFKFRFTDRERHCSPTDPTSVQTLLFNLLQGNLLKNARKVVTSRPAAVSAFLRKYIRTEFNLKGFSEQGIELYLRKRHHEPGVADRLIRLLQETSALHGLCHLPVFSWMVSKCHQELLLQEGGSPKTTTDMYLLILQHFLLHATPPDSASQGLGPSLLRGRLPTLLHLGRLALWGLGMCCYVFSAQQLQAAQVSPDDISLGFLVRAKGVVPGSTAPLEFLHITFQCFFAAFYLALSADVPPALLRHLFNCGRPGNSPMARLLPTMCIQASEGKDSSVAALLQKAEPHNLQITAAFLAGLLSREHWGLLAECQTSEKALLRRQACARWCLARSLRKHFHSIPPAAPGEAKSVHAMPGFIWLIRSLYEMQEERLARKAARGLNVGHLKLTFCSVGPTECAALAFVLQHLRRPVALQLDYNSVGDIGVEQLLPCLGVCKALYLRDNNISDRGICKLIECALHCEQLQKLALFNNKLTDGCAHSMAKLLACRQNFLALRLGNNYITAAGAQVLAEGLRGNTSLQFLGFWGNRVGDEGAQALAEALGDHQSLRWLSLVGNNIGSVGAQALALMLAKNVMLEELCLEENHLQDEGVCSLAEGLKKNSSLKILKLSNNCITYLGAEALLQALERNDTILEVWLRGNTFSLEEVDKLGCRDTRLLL
measure: inhibition (%)
Numbers only here, please. The scale is %.

## Input May I ask what inhibition has been recorded for CCCCNC(=O)CC[C@H]1NC(=O)c2cc(Oc3cccc(N(C)C)c3)c(NC(=O)COCc3ccccc3)cc2NC1=O ?
## Output 71.6

## Input inhibition lookup needed for CCCCCCCCCN1C(=O)[C@@H](CCC(=O)N[C@@H](C)C(N)=O)N(C)C(=O)c2ccc(Cl)cc21 , thanks.
## Output 27.7

## Input For the compound COC(=O)CC[C@H]1NC(=O)c2cc(Oc3cccc4ccccc34)c(NC(=O)/C=C\c3ccc(F)cc3Cl)cc2NC1=O , what inhibition is on record?
## Output 34.2

## Input What value of inhibition has been recorded for this entry: CCN(CC)C(=O)CC[C@H]1NC(=O)c2cc(Oc3cccc4ccccc34)c(NC(=O)/C=C\c3ccc(F)cc3Cl)cc2NC1=O
## Output 1.94

* * *

Kindly state inhibition for each of the entries shown.
target: Nucleotide-binding oligomerization domain-containing protein 2 (Homo sapiens, UniProt Q9HC29); assay: Antagonist activity at human NOD2 expressed in HEK-Blue cells assessed as inhibition of MDP-stimulated cell activation at 10 uM preincubated for 3 hrs followed by MDP addition measured after 20 hrs by SEAP reporter gene assay; type: cell-based
Value expressed in %; do not type the unit.

## Input I would be grateful if you could share the reported inhibition for COC(=O)CC[C@H]1NC(=O)c2cc(Oc3ccccc3)c(NC(=O)Nc3ccc(F)cc3)cc2NC1=O .
## Output 0.22

## Input Tell me the measured inhibition of CCCCN(CCCC)C(=O)CC[C@H]1NC(=O)c2cc(Oc3cccc(N(C)C)c3)c(NC(=O)COCc3ccccc3)cc2NC1=O , please.
## Output 88.6

## Input Find the recorded inhibition belonging to O=C(CC[C@H]1NC(=O)c2cc(N3CCOCC3)c(NC(=O)C3CC3)cc2NC1=O)NC1CCCc2ccccc21 (some centres undefined) and report it.
## Output 27.1

## Input Reported inhibition, molecule CCCCCCCCCCCCNCC(=O)Nc1cc2c(cc1Oc1cccc(N(C)C)c1)C(=O)N[C@H](CCC(=O)OC)C(=O)N2 : ____
## Output -3.92

* * *

Please provide measured IC50 for the entries that follow.
Biological target: Nucleotide-binding oligomerization domain-containing protein 1 (Homo sapiens, UniProt Q9Y239)
Sequence (Q9Y239 whole entry): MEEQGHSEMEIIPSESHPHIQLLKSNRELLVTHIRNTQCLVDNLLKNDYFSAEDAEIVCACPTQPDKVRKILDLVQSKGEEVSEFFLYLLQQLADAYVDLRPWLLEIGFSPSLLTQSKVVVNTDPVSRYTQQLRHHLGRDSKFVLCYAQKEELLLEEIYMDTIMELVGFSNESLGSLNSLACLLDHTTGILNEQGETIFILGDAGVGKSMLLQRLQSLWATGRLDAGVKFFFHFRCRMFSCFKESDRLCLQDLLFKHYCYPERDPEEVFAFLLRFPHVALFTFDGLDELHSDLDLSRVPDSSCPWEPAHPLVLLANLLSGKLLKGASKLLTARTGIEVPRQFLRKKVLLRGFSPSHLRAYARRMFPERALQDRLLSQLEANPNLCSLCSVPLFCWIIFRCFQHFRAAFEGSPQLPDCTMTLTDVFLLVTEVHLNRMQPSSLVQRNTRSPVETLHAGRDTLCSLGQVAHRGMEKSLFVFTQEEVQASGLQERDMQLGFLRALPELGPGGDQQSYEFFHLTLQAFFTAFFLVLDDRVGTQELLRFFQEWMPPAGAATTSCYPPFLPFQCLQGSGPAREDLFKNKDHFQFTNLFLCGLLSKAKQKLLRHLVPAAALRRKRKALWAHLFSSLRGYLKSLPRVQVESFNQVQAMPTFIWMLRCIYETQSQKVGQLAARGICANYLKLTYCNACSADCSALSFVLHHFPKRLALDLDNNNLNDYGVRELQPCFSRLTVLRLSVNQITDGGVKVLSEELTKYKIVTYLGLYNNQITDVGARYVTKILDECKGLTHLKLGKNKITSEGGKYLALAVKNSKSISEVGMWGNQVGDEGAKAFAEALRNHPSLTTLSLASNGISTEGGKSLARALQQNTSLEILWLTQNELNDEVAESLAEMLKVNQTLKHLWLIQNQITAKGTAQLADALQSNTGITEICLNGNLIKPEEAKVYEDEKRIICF
Assay: Antagonist activity at human NOD1 expressed in HEK-blue cells assessed as inhibition of C12-iE-DAP-stimulated cell activation preincubated for 3 hrs followed by C12-iE-DAP addition measured after 20 hrs by SEAP reporter gene assay
Note: unit µM is implicit; provide only the numeric part.

## Input What value of measured IC50 is listed for CN(C)c1cccc(Oc2cc3c(cc2NC(=O)COCc2ccccc2)NC(=O)[C@@H](CCC(=O)N2CCCCC2)NC3=O)c1 ?
## Output 1.11

## Input What measured IC50 goes with COC(=O)CC[C@H]1NC(=O)c2cc(Oc3cccc(N4CCCC4)c3)c(NC(=O)COCc3ccc(Cl)cc3)cc2NC1=O ?
## Output 1.39

## Input Given C[C@@H]1NC(=O)c2cc(Oc3cccc(N(C)C)c3)c(NC(=O)COCc3ccc(C(F)(F)F)cc3)cc2NC1=O , state its recorded IC50.
## Output 1.93

## Input // query IC50 value for entry COC(=O)CC[C@H]1NC(=O)c2cc(Oc3ccc(Cl)c(N(C)C)c3)c(NC(=O)COCc3ccc(Cl)cc3)cc2NC1=O
## Output 1.55

## Input What measured IC50 goes with COC(=O)CC[C@H]1NC(=O)c2cc(Oc3cccc(N(C)C)c3)c(NC(=O)COCc3ccc(C(F)(F)F)cc3)cc2NC1=O ?
## Output 0.94

## Input Fill in the blank: the reported IC50 of CN(C)c1cccc(Oc2cc3c(cc2NC(=O)COCc2ccc(C(F)(F)F)cc2)NC(=O)[C@@H](CCC(=O)N2CCC(F)CC2)NC3=O)c1 is ____.
## Output 0.58

## Input # query: IC50 of entry COC(=O)CC[C@H]1NC(=O)c2cc(Oc3cccc(N(C)C)c3)c(NC(=O)COCc3ccc(F)c(F)c3)cc2NC1=O
## Output 1.16

* * *

biological target: Nucleotide-binding oligomerization domain-containing protein 1 (Homo sapiens); assay: Antagonist activity at human NOD1 expressed in HEK-Blue cells assessed as inhibition of C12-iE-DAP-stimulated cell activation at 10 uM preincubated for 3 hrs followed by C12-iE-DAP addition measured after 20 hrs by SEAP reporter gene assay; format: cell-based
# inhibition >= 30% gives Criterion met, anything below gives Criterion not met

## Input Reported inhibition reaches at least 30% for CCCNC(=O)CC[C@H]1NC(=O)c2cc(Oc3cccc(N(C)C)c3)c(NC(=O)COCc3ccc(Br)cc3)cc2NC1=O ?
## Output Criterion met

## Input Would you say CCCCCCCCCCCCCCCCNC(=O)CC[C@H]1NC(=O)c2cc(Oc3cccc(N(C)C)c3)c(NC(=O)COCc3ccccc3)cc2NC1=O shows inhibition at minimum 30%?
## Output Criterion not met

## Input Please tell me: is the molecule COC(=O)CC[C@H]1NC(=O)c2cc(N3CCOCC3)c(NC(=O)Cc3ccccc3)cc2NC1=O at or over 30% in terms of inhibition?
## Output Criterion not met

## Input Form field: inhibition at least 30%? Entry: CCCNC(=O)CC[C@H]1NC(=O)c2cc(Oc3cccc(N(C)C)c3)c(NC(=O)COCc3ccc(Cl)cc3)cc2NC1=O
## Output Criterion met

## Input For this molecule, is measured inhibition 30% or higher? CCCCCCCCCN1C(=O)[C@@H](CCC(=O)N[C@@H](C)C(N)=O)N(C)C(=O)c2ccc(Cl)cc21
## Output Criterion not met

## Input # check: inhibition of CCCNC(=O)CC[C@H]1NC(=O)c2cc(Oc3cccc(N(C)C)c3)c(NC(=O)COCc3ccc(F)cc3)cc2NC1=O is greater than or equal to 30%
## Output Criterion met

## Input Given the entry COC(=O)CC[C@H]1NC(=O)c2cc(Oc3ccc(C)c(C)c3)c(NC(=O)COCc3ccccc3)cc2NC1=O , answer whether its inhibition meets or surpasses 30%.
## Output Criterion met

## Input Can CCCNC(=O)CC[C@H]1NC(=O)c2cc(Oc3cccc(N(C)C)c3)c(NC(=O)COCc3ccccc3)cc2NC1=O be said to have inhibition at or above 30%?
## Output Criterion met

## Input Test whether the molecule CCCCCCCCCN1C(=O)[C@@H](CCC(=O)OC)N(C)C(=O)c2ccc(Cl)cc21 records inhibition of 30% or higher.
## Output Criterion met

## Input # bool: inhibition of COC(=O)CC[C@H]1NC(=O)c2cc(Oc3cccc(N(C)C)c3)c(NC(=O)COCc3cccc(F)c3)cc2NC1=O >= 30%
## Output Criterion met

## Input Given the entry CN(C)c1cccc(Oc2cc3c(cc2NC(=O)COCc2ccc(C(F)(F)F)cc2)NC(=O)[C@@H](CCC(=O)N2CCC(F)CC2)NC3=O)c1 , answer whether its inhibition meets or surpasses 30%.
## Output Criterion met

## Input Say whether O=C(O)CC[C@H]1NC(=O)c2cc(Oc3cccc4ccccc34)c(NC(=O)/C=C\c3ccc(F)cc3Cl)cc2NC1=O shows inhibition of 30% or more.
## Output Criterion not met

## Input Has CN(C)c1cccc(Oc2cc3c(cc2NC(=O)COCc2ccccc2)NC(=O)[C@@H](CCC(=O)NC(C)(C)C)NC3=O)c1 a recorded inhibition greater than or equal to 30%?
## Output Criterion met

## Input Form field: inhibition at least 30%? Entry: COC(=O)CC[C@H]1NC(=O)c2cc(Oc3cccc(N(C)C)c3)c(NC(=O)COCc3ccc(Br)cc3)cc2NC1=O
## Output Criterion met

## Input Does the reported inhibition for CCCCCCCCCCCCNC(=O)CC[C@H]1NC(=O)c2cc(Oc3cccc(N(C)C)c3)c(NC(=O)COCc3ccccc3)cc2NC1=O fall at or above the 30% mark?
## Output Criterion met

## Input Assess whether reported inhibition for COC(=O)CC[C@H]1NC(=O)c2cc(Oc3cccc(N(C)C)c3)c(NC(=O)COCc3cccc(Cl)c3)cc2NC1=O sits at 30% or higher.
## Output Criterion met

## Input Would you say CCN(CC)C(=O)CC[C@H]1NC(=O)c2cc(Oc3cccc(N(C)C)c3)c(NC(=O)COCc3ccccc3)cc2NC1=O shows inhibition at minimum 30%?
## Output Criterion met

## Input Item COC(=O)CC[C@H]1NC(=O)c2cc(Oc3ccc(C)c(C)c3)c(NC(=O)C3CC3)cc2NC1=O with inhibition of 30% or above?
## Output Criterion not met

## Input Check this molecule for inhibition at or above 30%: CN(C)c1cccc(Oc2cc3c(cc2NC(=O)COCc2ccccc2)NC(=O)[C@@H](CCC(=O)N2CCCC2)NC3=O)c1
## Output Criterion met

## Input Kindly determine if inhibition recorded for CCCCCCCCCCN1C(=O)C(CCC(=O)OC)NC(=O)c2cc(Cl)ccc21 (configuration not stated) is above or exactly 30%.
## Output Criterion not met

## Input I'd appreciate it if you could say whether COC(=O)CC[C@H]1NC(=O)c2cc(Oc3cc(Cl)c(Cl)c(N(C)C)c3Cl)c(NC(=O)COCc3ccccc3)cc2NC1=O has inhibition at least equal to 30%.
## Output Criterion met

## Input Record COC(=O)CC[C@H]1NC(=O)c2cc(OC)c(NC(=O)c3ccc4ccccc4c3)cc2NC1=O ; criterion: inhibition no lower than 30%. Met?
## Output Criterion met

## Input Given the entry CN(C)c1cccc(Oc2cc3c(cc2NC(=O)COCc2ccc(Cl)cc2)NC(=O)[C@@H](CCC(=O)N2CCCCC2)NC3=O)c1 , answer whether its inhibition meets or surpasses 30%.
## Output Criterion met

## Input Quick check: does COC(=O)CC[C@H]1NC(=O)c2cc(Oc3cccc(N(C)C)c3)c(NC(=O)COCc3ccc(C#N)cc3)cc2NC1=O have inhibition greater than or equal to 30%?
## Output Criterion met

## Input Test whether the molecule COC(=O)CC[C@H]1NC(=O)c2cc(Oc3cccc(N(C)C)c3)c(NC(=O)COCc3ccc(F)cc3Cl)cc2NC1=O records inhibition of 30% or higher.
## Output Criterion met

## Input # check: inhibition of COC(=O)CC[C@H]1NC(=O)c2cc(Oc3cccc(N(C)C)c3)c(NC(=O)COCc3ccccc3)cc2NC1=O is greater than or equal to 30%
## Output Criterion met

## Input Confirm if inhibition reported for the molecule CN(C)c1cccc(Oc2cc3c(cc2NC(=O)COCc2ccccc2)NC(=O)[C@@H](CCC(=O)NC2CC2)NC3=O)c1 is 30% or above.
## Output Criterion met

## Input Please tell me: is the molecule CCCCCCCCCCCCNC(=O)CC[C@H]1NC(=O)c2cc(N3CCOCC3)c(NC(=O)C3CC3)cc2NC1=O at or over 30% in terms of inhibition?
## Output Criterion not met

## Input Could you tell me if the measured inhibition of CCN(CC)C(=O)CC[C@@H]1C(=O)N(CC2CC2)c2cc(Cl)ccc2C(=O)N1C reaches 30% or more?
## Output Criterion not met

## Input For this molecule, is measured inhibition 30% or higher? CCN(CC)C(=O)CC[C@@H]1C(=O)N(CCC(C)C)c2cc(Cl)ccc2C(=O)N1C
## Output Criterion not met

## Input # bool: inhibition of CCCCN(CCCC)c1cc2c(cc1NC(C)=O)NC(=O)[C@@H](CCC(=O)OC)NC2=O >= 30%
## Output Criterion not met
